# measurement.description: Cmax in rat at 30 mg/kg
# Assay type: ADME, organism-based
# Set-up: dose 30 mg/kg
# condition.description: in vivo
reported.endpoint: Cmax (µM)
Kindly answer with a numeric value in µM, unit omitted.

Request: Looking for the measured Cmax of "CC(C)c1nccc2c1c(Sc1ccc(Cl)c(Cl)c1)c1n2CC[C@@H]1CC(=O)O" , can you help?
Response: 28

====

# measurement.description: Terminal half life in squirrel monkey at 10 mg/kg
# Assay type: ADME, organism-based
# Parameters: dose 10 mg/kg
# condition.description: saimiri, in vivo, read-out: beta t1/2 (converted)
reported.endpoint: half-life (h)
Value expressed in h; do not type the unit.

Request: So what's the measured half-life for this one? "CC(C)c1nccc2c1c(Sc1ccc(Cl)c(Cl)c1)c1n2CC[C@@H]1CC(=O)O"
Response: 1.4
